assay: Equilibrium solubility of trelagliptin crystal forms in different dissolution media (UV-vis at 279 nm); format: physicochemical; settings: buffer solution, 37 °C, pH 1.2, simulated gastric fluid, thermodynamic from solid, buffer solution pH = 1.2, 37° C., 24 h
metric.name: solubility at 24 h (mg/mL)
The answer is to be given in mg/mL; state only the numeric part.

Req: Specify reported solubility at 24 h for the compound shown: Cn1c(=O)cc(N2CCC[C@@H](N)C2)n(Cc2cc(F)ccc2C#N)c1=O [Crystal form I, trelagliptin]
Resp: 42.7
